Tested on: SK-MEL-2 melanoma
Test: NCI-60 one-dose screen, 48 h
Settings: 10 µM unless noted
This is part of a sample that, as a whole, favours compounds with a hit. Of some 83,000 tested, about 20% had one in any assay. The source made the active and inactive calls. How the source made its calls: active means growth percent below 10; inactive means the rest.
Labels: active, inactive

>>> qualitative_label("O=C(CCN1C(=O)/C(=C/c2ccc(O)cc2)SC1=S)Nc1ccccc1")
"inactive"
>>> qualitative_label("CCCCCCn1c(-c2ccc(C(=O)O/N=C(\\N)c3ccc4ccccc4c3)cc2)nc(-c2ccccc2)c1-c1ccccc1")
"inactive"
>>> qualitative_label("Clc1ccc2c(c1)N(CCCN1CCCC1)c1ccccc1S2")
"inactive"
>>> qualitative_label("Cc1cc(Cl)ccc1NS(=O)(=O)c1ccc(-c2cnc(C3CC3)o2)cc1")
"inactive"
>>> qualitative_label("Cc1oc2nc[nH]c(=O)c2c1C(=O)/C=C/c1ccc(Br)cc1")
"inactive"
>>> qualitative_label("COc1ccc2c(c1OC)C(=O)O[C@H]2[C@H]1c2c(cc3c(c2OC)OCO3)CCN1C")
"inactive"
>>> qualitative_label("N/C(=N\\c1nc2ccccc2s1)NC(=O)Nc1cccc2ccccc12")
"inactive"
>>> qualitative_label("COc1ccc2sc3c(NCCO)nc4ccccc4c3c(=O)c2c1")
"inactive"
>>> qualitative_label("CC(=O)OC[C@H]1OC(Sc2sc(C(=O)c3ccc(Cl)cc3)c(N)c2-c2nc3ccccc3s2)[C@H](OC(C)=O)[C@@H](OC(C)=O)[C@@H]1OC(C)=O (stereo partly drawn)")
"inactive"
>>> qualitative_label("COc1ccc(N2C(=O)C(Oc3ccccc3)C2c2ccc(C)cc2)cc1 (stereo not drawn)")
"inactive"
>>> qualitative_label("COc1ccc(C2=Nn3c(nnc3-c3cc(Cl)cc(Cl)c3Cl)SC2)cc1")
"inactive"
>>> qualitative_label("CCS(=O)(=O)c1ncnc2nc[nH]c12")
"inactive"
>>> qualitative_label("C/C(=N/NC(N)=S)c1sc(Nc2cccc(Cl)c2)nc1C")
"inactive"
>>> qualitative_label("COc1ccc(C(=O)n2nc(-c3ccccc3)nc2N)cc1OC")
"inactive"
>>> qualitative_label("Nc1ccccc1-c1cc2c(c3c1[nH]c1ccccc13)CCCCC2")
"inactive"
>>> qualitative_label("CC1=C(SCCC(=O)OC(C[Se]C2=C(C)C(=O)c3ccccc3C2=O)C(=O)NC(C)(C)C)C(=O)c2ccccc2C1=O (stereo not drawn)")
"active"
>>> qualitative_label("CC(C)(C)NC(=O)C(OC(=O)c1cccc(Cl)c1)c1ccc(Cl)cc1 (stereo not drawn)")
"inactive"
>>> qualitative_label("Cc1ccc2sc3c(NCCN)nc4ccccc4c3c(=O)c2c1")
"inactive"
>>> qualitative_label("O=C(N/N=C/[C@H](O)[C@H](O)[C@H](O)CO)c1ccc(NC(=O)c2cccnc2)cc1")
"inactive"
>>> qualitative_label("CCCSc1nc2ccc(C)cc2cc1/C=[N+](\\[O-])c1ccccc1")
"inactive"
>>> qualitative_label("COc1cccc(-c2nc(-c3ccc(NC(=O)c4ccccc4)cc3)[nH]c2-c2ccnc(Br)c2)c1")
"inactive"
>>> qualitative_label("O=C1/C(=C/c2ccccc2[N+](=O)[O-])Oc2ccc(O)c(O)c21")
"inactive"
>>> qualitative_label("Cc1nn(-c2ccccc2)c2c1N=c1s/c(=C\\c3ccc(C(F)(F)F)cc3)c(=O)n1CN2")
"inactive"
>>> qualitative_label("COc1ccc(C2C(C#N)=C(N)Oc3c2sc2c(C)cccc32)cc1 (stereo not drawn)")
"inactive"
>>> qualitative_label("CCc1cccc2c3c(sc12)C(c1ccc(F)cc1)C(C#N)=C(N)O3 (stereo not drawn)")
"inactive"
>>> qualitative_label("OC(c1ccccc1)C(NC(Cc1ccccc1)c1ccccc1)c1ccccc1 (stereo not drawn)")
"inactive"
>>> qualitative_label("CCCCn1c(=O)c(-c2cc(-c3ccc(Cl)cc3)nc(-c3ccc(Cl)cc3)c2)cc2cc(Cl)ccc21")
"inactive"
>>> qualitative_label("N#CC1=C(N)Oc2c(sc3c(Br)cccc23)C1c1ccc(Br)cc1 (stereo not drawn)")
"active"
